Source of measurements: ChEMBL document CHEMBL1201862

Measured GI50, listed per entry.
System: TK-10
protocol-summary: NCI tumour cell line growth inhibition, 48 h
Active and inactive are the calls of the source. Cut-off read from the data, not from the text of the source: active = GI50 up to about 1.1 µM and inactive = higher.

Solved cases (5 shown):
{"compound": "O=C(Nc1ccccc1)n1[nH]c(=O)n(-c2ccccc2)c1=O", "result": "> 100 µM (inactive)"}
{"compound": "NC(=O)C[S+]([O-])CC(N)C(=O)O (stereo not drawn)", "result": "> 100 µM (inactive)"}
{"compound": "Cc1cc(C)c(N[S+]([O-])c2ccc(Cl)cc2)c(C)c1 (stereo not drawn)", "result": "> 100 µM (inactive)"}
{"compound": "O=C(Nc1ccc(Cl)cc1)/C(Cc1cccc[n+]1[O-])=N\\Nc1ccc([N+](=O)[O-])cc1[N+](=O)[O-]", "result": "> 100 µM (inactive)"}
{"compound": "COc1cc2c(/C=C3/C(=O)Nc4cc(C)c(O)cc43)c(Cl)[nH]c2cc1C", "result": "1.9 µM (inactive)"}

stdin: Please indicate GI50 recorded for O=P(CCOc1ccccc1OCCP(=O)(c1ccccc1)c1ccc2c(c1)OCCOCCOCCOCCO2)(c1ccccc1)c1ccc2c(c1)OCCOCCOCCOCCO2 (stereo not drawn)
stdout: > 100 µM (inactive)

stdin: Please indicate GI50 recorded for O=C(/C=C/c1ccc(Cl)cc1)Oc1ccc(/C=C2\CCCCC2=O)cc1
stdout: > 100 µM (inactive)

stdin: Please indicate GI50 recorded for O=c1c2cc(Cl)ccc2[nH]c2cc(O)cc(O)c12
stdout: > 10 µM (inactive)

stdin: Please indicate GI50 recorded for CS(=O)(=O)c1ccc(-c2cc(-c3ccc(S(C)(=O)=O)cc3)[n+](-c3cc(-c4ccccc4)c([O-])c(-c4ccccc4)c3)c(-c3ccc(S(C)(=O)=O)cc3)c2)cc1
stdout: > 100 µM (inactive)

stdin: Please indicate GI50 recorded for Nc1nc(N)c2ncn(Cc3ccccc3CCl)c2n1
stdout: > 100 µM (inactive)

stdin: Please indicate GI50 recorded for O=C(COc1ccc(Cl)c(Cl)c1)Nc1ccc[n+](Cc2ccc(S(=O)(=O)F)c(Cl)c2)c1
stdout: > 100 µM (inactive)
